B1: Twister Ribozyme (parent)
chain: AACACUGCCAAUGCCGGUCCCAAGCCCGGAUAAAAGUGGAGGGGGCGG

Variants of: B1
EXPERIMENTAL PROTOCOL: self-cleavage, relative activity (ratio to wild type); higher = more cleavage; co-transcriptional
EXPERIMENTAL READOUT: self-cleavage

Answered examples (2):
C15G G17U; 0.319
U12G G29U; 0.823

Here is another variant to look at.
Prompt: Which self-cleavage value belongs to C3G U31C ?
Completion: 0.347
